Assay: Cytotoxicity against HDF cells assessed as reduction in cell viability at 12.5 to 25 uM incubated for 24 hrs by MTT assay
Type: toxicity, cell-based
Conditions: human, dose 12.5-25 µM

| itemSmiles | Activity |
| --- | --- |
| COc1cc(NCCCCNC(=O)/C=C/c2ccc([N+](=O)[O-])cc2)c2nc3cc(Cl)ccc3cc2c1 | Non-Toxic |
| COc1cc(NCCCCNC(=O)/C=C/c2ccccc2)c2nc3cc(Cl)ccc3cc2c1 | Non-Toxic |
| COc1cc(NCCCCNC(=O)/C=C/c2ccc(C(F)(F)F)cc2)c2nc3cc(Cl)ccc3cc2c1 | Non-Toxic |
| COc1cc(NCCCCNC(=O)/C=C/c2cccc(Br)c2)c2nc3cc(Cl)ccc3cc2c1 | Non-Toxic |
| COc1cc(NCCCCNC(=O)/C=C/c2ccc(F)cc2)c2nc3cc(Cl)ccc3cc2c1 | Non-Toxic |

* * *

Assay: Selectivity index, ratio of IC50 for cytotoxicity against HDF cells to IC50 for antiproliferative activity against human Huh-7 cells
Format: toxicity, cell-based
Details: HDF cells versus Huh-7 cells, read-out: Ratio IC50
selectivity ratio for assorted compounds
attributeMeasured: selectivity ratio

| compound | attributeMeasured | reported |
| --- | --- | --- |
| CCN(CC)CCCC(C)Nc1c2ccc(Cl)cc2nc2c(NCCCCNC(=O)/C=C/c3ccc(F)cc3)cc(OC)cc12 (stereo not drawn) | selectivity ratio | > 4 |
| CCN(CC)CCCNc1c2ccc(Cl)cc2nc2c(NCCCCNC(=O)/C=C/c3ccccc3)cc(OC)cc12 | selectivity ratio | > 4.1 |
| CCN(CC)CCCNc1c2ccc(Cl)cc2nc2c(NCCCCNC(=O)/C=C/c3ccc(F)cc3)cc(OC)cc12 | selectivity ratio | > 4.5 |
| CCN(CC)CCCNc1c2ccc(Cl)cc2nc2c(NCCCCNC(=O)/C=C/c3ccc(OC)cc3)cc(OC)cc12 | selectivity ratio | > 4 |
| CCN(CC)CCCC(C)Nc1c2ccc(Cl)cc2nc2c(NCCCCNC(=O)/C=C/c3ccc(OC)cc3)cc(OC)cc12 (stereo not drawn) | selectivity ratio | > 4.1 |
| CCN(CC)CCCNc1c2ccc(Cl)cc2nc2c(NCCCCNC(=O)/C=C/c3cccc(F)c3)cc(OC)cc12 | selectivity ratio | > 4.3 |
| CCN(CC)CCCC(C)Nc1c2ccc(Cl)cc2nc2c(NCCCCNC(=O)/C=C/c3ccccc3)cc(OC)cc12 (stereo not drawn) | selectivity ratio | > 6.9 |
| CCN(CC)CCCC(C)Nc1c2ccc(Cl)cc2nc2c(NCCCCNC(=O)/C=C/c3cccc(F)c3)cc(OC)cc12 (stereo not drawn) | selectivity ratio | > 3.9 |

* * *

Assay: Selectivity index, ratio of IC50 for cytotoxicity against HDF cells to IC50 for antiproliferative activity against human MKN-28 cells
Assay type: toxicity, cell-based
Conditions: HDF cells versus MKN-28 cells, read-out: Ratio IC50
attributeMeasured: selectivity ratio

| compound | reported |
| --- | --- |
| CCN(CC)CCCC(C)Nc1c2ccc(Cl)cc2nc2c(NCCCCNC(=O)/C=C/c3ccccc3)cc(OC)cc12 (centres undefined) | > 5 |
| CCN(CC)CCCNc1c2ccc(Cl)cc2nc2c(NCCCCNC(=O)/C=C/c3ccc(F)cc3)cc(OC)cc12 | > 4.1 |
| CCN(CC)CCCNc1c2ccc(Cl)cc2nc2c(NCCCCNC(=O)/C=C/c3ccccc3)cc(OC)cc12 | > 3.2 |
| CCN(CC)CCCC(C)Nc1c2ccc(Cl)cc2nc2c(NCCCCNC(=O)/C=C/c3cccc(F)c3)cc(OC)cc12 (centres undefined) | > 3.9 |

* * *

Test system: HepG2
Test: Antiproliferative activity against human HepG2 cells assessed as inhibition of cell growth incubated for 24 hrs by Alamar blue assay
Format: functional, cell-based
Details: HepG2, 24 h

| molecule | IC50 [µM] |
| --- | --- |
| CCN(CC)CCCC(C)Nc1c2ccc(Cl)cc2nc2c(NCCCCNC(=O)/C=C/c3ccc(F)cc3)cc(OC)cc12 (configuration not stated) | 7.64 |
| CCN(CC)CCCNc1c2ccc(Cl)cc2nc2c(NCCCCNC(=O)/C=C/c3cccc(F)c3)cc(OC)cc12 | 5.21 |
| CCN(CC)CCCNc1c2ccc(Cl)cc2nc2c(NCCCCNC(=O)/C=C/c3ccc(F)cc3)cc(OC)cc12 | 6.32 |
| COc1cccc2c1C(=O)c1c(O)c3c(c(O)c1C2=O)C[C@@](O)(C(=O)CO)C[C@@H]3O[C@H]1C[C@H](N)[C@H](O)[C@H](C)O1 | 0.425 |
| CCN(CC)CCCC(C)Nc1c2ccc(Cl)cc2nc2c(NCCCCNC(=O)/C=C/c3ccc(OC)cc3)cc(OC)cc12 (configuration not stated) | 3.33 |
| CCN(CC)CCCC(C)Nc1c2ccc(Cl)cc2nc2c(NCCCCNC(=O)/C=C/c3cccc(F)c3)cc(OC)cc12 (configuration not stated) | 5.06 |
| CCN(CC)CCCC(C)Nc1c2ccc(Cl)cc2nc2c(NCCCCNC(=O)/C=C/c3ccccc3)cc(OC)cc12 (configuration not stated) | 4.17 |

* * *

Each record here notes measured IC50.
Tested on: HepG2
Test: Antiproliferative activity against human HepG2 cells assessed as inhibition of cell growth incubated for 24 hrs by Alamar blue assay
Assay type: functional, cell-based
Conditions: HepG2, 24 h

| compound | testedOn | IC50 |
| --- | --- | --- |
| CCN(CC)CCCC(C)Nc1c2ccc(Cl)cc2nc2ccc(OC)cc12 (stereo not drawn) [QUINACRINE] | HepG2 | 4.48 µM |
| CCN(CC)CCCNc1c2ccc(Cl)cc2nc2c(NCCCCNC(=O)/C=C/c3ccccc3)cc(OC)cc12 | HepG2 | 4.11 µM |
| CCN(CC)CCCNc1c2ccc(Cl)cc2nc2c(NCCCCNC(=O)/C=C/c3ccc(OC)cc3)cc(OC)cc12 | HepG2 | 5.38 µM |

* * *

Quick reference: IC50 of the listed items.
System: MKN-28
Assay: Antiproliferative activity against human MKN-28 cells assessed as inhibition of cell growth incubated for 2 days by SRB assay
Assay type: functional, cell-based
Settings: MKN-28, 48 h
attributeMeasured: IC50 (nM)

| molecule | reported |
| --- | --- |
| COc1cccc2c1C(=O)c1c(O)c3c(c(O)c1C2=O)C[C@@](O)(C(=O)CO)C[C@@H]3O[C@H]1C[C@H](N)[C@H](O)[C@H](C)O1 | 340 |
| CCN(CC)CCCC(C)Nc1c2ccc(Cl)cc2nc2ccc(OC)cc12 (configuration not stated) | 2460 |

* * *

Experiment: Selectivity index, ratio of IC50 for cytotoxicity against HDF cells to IC50 for antiproliferative activity against human MKN-28 cells
Type: toxicity, cell-based
Details: HDF cells versus MKN-28 cells, read-out: Ratio IC50
selectivity ratio for assorted molecules

| molecule | selectivity ratio |
| --- | --- |
| CCN(CC)CCCC(C)Nc1c2ccc(Cl)cc2nc2c(NCCCCNC(=O)/C=C/c3ccc(F)cc3)cc(OC)cc12 (centres undefined) | > 4 |
| CCN(CC)CCCC(C)Nc1c2ccc(Cl)cc2nc2c(NCCCCNC(=O)/C=C/c3ccc(OC)cc3)cc(OC)cc12 (centres undefined) | > 3.6 |
| CCN(CC)CCCNc1c2ccc(Cl)cc2nc2c(NCCCCNC(=O)/C=C/c3ccc(OC)cc3)cc(OC)cc12 | > 3.2 |
| CCN(CC)CCCNc1c2ccc(Cl)cc2nc2c(NCCCCNC(=O)/C=C/c3cccc(F)c3)cc(OC)cc12 | > 3.8 |

* * *

Test: Selectivity index, ratio of IC50 for cytotoxicity against HDF cells to IC50 for antiproliferative activity against human HepG2 cells
Assay type: toxicity, cell-based
Conditions: HDF cells versus HepG2 cells, read-out: Ratio IC50
Catalogue of selectivity ratio readings, one per entry.

| compound | selectivity ratio |
| --- | --- |
| CCN(CC)CCCC(C)Nc1c2ccc(Cl)cc2nc2c(NCCCCNC(=O)/C=C/c3ccc(OC)cc3)cc(OC)cc12 (stereo not drawn) | > 15 |
| CCN(CC)CCCC(C)Nc1c2ccc(Cl)cc2nc2c(NCCCCNC(=O)/C=C/c3cccc(F)c3)cc(OC)cc12 (stereo not drawn) | > 9.9 |
| CCN(CC)CCCC(C)Nc1c2ccc(Cl)cc2nc2c(NCCCCNC(=O)/C=C/c3ccccc3)cc(OC)cc12 (stereo not drawn) | > 12 |
| CCN(CC)CCCNc1c2ccc(Cl)cc2nc2c(NCCCCNC(=O)/C=C/c3ccc(F)cc3)cc(OC)cc12 | > 7.9 |
| CCN(CC)CCCC(C)Nc1c2ccc(Cl)cc2nc2c(NCCCCNC(=O)/C=C/c3ccc(F)cc3)cc(OC)cc12 (stereo not drawn) | > 6.5 |
| CCN(CC)CCCNc1c2ccc(Cl)cc2nc2c(NCCCCNC(=O)/C=C/c3ccc(OC)cc3)cc(OC)cc12 | > 9.3 |
| CCN(CC)CCCNc1c2ccc(Cl)cc2nc2c(NCCCCNC(=O)/C=C/c3cccc(F)c3)cc(OC)cc12 | > 9.6 |
| CCN(CC)CCCNc1c2ccc(Cl)cc2nc2c(NCCCCNC(=O)/C=C/c3ccccc3)cc(OC)cc12 | > 12.2 |
